Tested on: Fibroblast
Assay: Multiplex assay against human fibroblast
Type: toxicity, cell-based
Conditions: 24 h, 10 µM, compound concentration 10 uM, replicate 2
Returns T if the recorded Population Normal (%) is greater than or equal to 90%, and F otherwise.

COMPOUND	CAT
Cc1cnc(-c2cc(N3CCN(C(=O)CCS(C)(=O)=O)CC3)ncc2Cl)c(C)c1	T
COc1ccccc1N1CCN(C[C@@H](C(=O)NC(C)(C)C)c2ccccc2)CC1.Cl.Cl	T
CC(C)c1noc(N2CCC(COc3ccc(-c4ccc(S(C)(=O)=O)cc4)nc3)CC2)n1 [GSK-1292263]	T
CN(C)C(=O)Cn1cc(-c2ccc(-c3cncc4ccccc34)cc2)cn1	T
CC(=O)Nc1cccc2c1c(Sc1ccc(Cl)cc1)c(C)n2CC(=O)O [AZD1981]	T
COC[C@@H](c1ccc(C(F)(F)F)cc1)N1CCN(C2(C)CCN(C(=O)c3c(C)ncnc3C)CC2)C[C@@H]1C.O=C(O)/C=C\C(=O)O [VICRIVIROC MALEATE]	F
O=C(NCCN1CCC(n2c(=O)[nH]c3cc(Cl)ccc32)CC1)c1ccc(F)cc1 [HALOPEMIDE]	T
CCCCCC(O)/C=C/[C@H]1C(=O)CC(O)C1C/C=C\CCCC(=O)O (some centres not stated)	T
Cl.NCCc1ccc(O)c(O)c1 [DOPAMINE HYDROCHLORIDE]	T
Cc1sc2c(c1C)C(c1ccc(Cl)cc1)=N[C@@H](CC(=O)NCCCCCCCCNC(=O)COc1cccc3c1C(=O)N(C1CCC(=O)NC1=O)C3=O)c1nnc(C)n1-2 (some centres not stated)	F
CC(/C=C1\SC(=S)N(CCCC(=O)Nc2ccc(C(=O)O)c(O)c2)C1=O)=C\c1ccccc1	T
